Tested on: U-2 OS
Experiment Notes: relative cell count vs DMSO (cell painting) (fraction of DMSO control); higher = more cells remaining (less cytotoxic)
Experimental Setup: 5 µM; 24 h
# relative cell count listing for each entry below

Molecule	relative cell count
CCN(CC)CCNC(=O)c1c(C)[nH]c(/C=C2\C(=O)Nc3ccc(F)cc32)c1C	0.917
CC1=CC(=O)c2ccccc2C1=O	0.89
COc1cc(/C=C/c2cc(/C=C/c3ccc(O)c(OC)c3)n(-c3ccc(C(=O)[O-])cc3)n2)ccc1O.[Na+]	1.07
CCN(CC)CCCC(C)Nc1ccnc2cc(Cl)ccc12 (stereo not given)	1.19
O=S1(=O)C=C(Sc2nn(-c3ccccc3)c(=S)s2)c2ccccc21	0.223
O=C(NNS(=O)(=O)c1ccccc1)c1cc(-c2ccnnc2)ccc1F	1.02
O.O=P1(N(CCCl)CCCl)NCCCO1 (stereo not given)	0.985
COC1=C2C[C@@H](C)C[C@H](OC)[C@H](O)[C@@H](C)/C=C(\C)[C@H](OC(N)=O)[C@@H](OC)/C=C\C=C(/C)C(=O)NC(=CC1=O)C2=O	0.759
C[n+]1ccc(-c2cc[n+](CCCCCCCCCC[P+](c3ccccc3)(c3ccccc3)c3ccccc3)cc2)cc1.[I-].[I-].[I-]	1.01
C/C1=C/C(=O)O[C@@H]2C[C@@H](CC[C@H](C)/C=C\CC1)O[C@@](O)([C@@H]1CSC(=O)N1)C2	0.691
ClC1=CC=C(C2=CSC(N/N=C3CCCC/3)=N2)C=C1	1
O=C1CC(Nc2ccccc2)C(=O)N1Cc1ccccc1 (stereo not given)	0.984
O=C1C(Cl)=C(NCCN2CCOCC2)C(=O)c2ncccc21	0.317
CC(=O)OC1C(c2ccc(=O)oc2)C2(C)CCC3C(CCC4CC(O)CCC43C)C23OC13 (stereo not given)	0.242
CS(=O)(=O)OCCCCOS(C)(=O)=O	0.682
CCN1CCN(c2ccc3nsnc3c2[N+](=O)[O-])CC1	0.908
C[C@H](CC[C@@]1(O)O[C@H]2C[C@H]3[C@@H]4CC=C5C[C@@H](O[C@@H]6O[C@H](CO)[C@@H](O[C@@H]7O[C@@H](C)[C@H](O)[C@@H](O)[C@H]7O)[C@H](O)[C@H]6O[C@@H]6O[C@@H](C)[C@H](O)[C@@H](O)[C@H]6O)CC[C@]5(C)[C@H]4CC[C@]3(C)[C@H]2[C@@H]1C)CO[C@@H]1O[C@H](CO)[C@@H](O)[C@H](O)[C@H]1O	0.502
Cn1ncnc2c(=O)n(C)c(=O)nc1-2	0.0345
Nc1nccc2c1ncn2[C@@H]1C=C(CO)[C@@H](O)[C@H]1O	0.938
COc1ccc2c(c[n+](C)c3c4cc5c(cc4ccc23)OCO5)c1OC	0.982
O=C1CC(Sc2nnnn2-c2ccccc2)C(=O)N1c1ccc([N+](=O)[O-])cc1 (stereo not given)	1.01
CCCC[S@](=N)(=O)CC[C@H](N)C(=O)O	1.04
O=C(O)C1=CC(=C(c2ccc(O)c(C(=O)O)c2)c2ccc(O)c(C(=O)O)c2)C=CC1=O	0.968
O=C1C=CC(=O)N1c1ccccc1	0.602
CNC(=O)Nc1ccc2c(c1)CC[C@@]21OC(=O)N(CC(=O)N(Cc2ccc(F)cc2)[C@@H](C)C(F)(F)F)C1=O	1.02
